study_target: human M2 receptor (Homo sapiens)
Sequence (P08172 whole entry): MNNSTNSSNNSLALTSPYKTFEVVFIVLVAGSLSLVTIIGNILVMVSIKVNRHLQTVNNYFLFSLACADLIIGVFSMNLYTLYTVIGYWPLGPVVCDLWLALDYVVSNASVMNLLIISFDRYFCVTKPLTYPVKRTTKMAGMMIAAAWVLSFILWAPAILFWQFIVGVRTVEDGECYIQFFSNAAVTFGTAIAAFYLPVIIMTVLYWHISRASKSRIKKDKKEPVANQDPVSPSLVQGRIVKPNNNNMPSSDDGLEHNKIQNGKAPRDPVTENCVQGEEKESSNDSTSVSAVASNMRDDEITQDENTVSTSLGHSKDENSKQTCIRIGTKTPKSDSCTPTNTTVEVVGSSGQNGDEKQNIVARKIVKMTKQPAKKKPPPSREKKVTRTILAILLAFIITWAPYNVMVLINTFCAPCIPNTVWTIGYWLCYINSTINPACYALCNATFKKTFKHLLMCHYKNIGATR
assay_details: Functional M2-GIRK1/4 activation test: allosteric potency (EC50) and efficiency at EC20 acetylcholine
experimental_parameters: CHO-DUKX-M2-GIRK cells; voltage-sensitive dye; acetylcholine at EC20; in some cases mean of two or more determinations
result_type: EC50 (nM)

Worked examples, 5 compounds total:
>>> reported("CC(C)C(NC(=O)c1cn(-c2c(F)cc(F)cc2F)c2nc(N3C[C@@H](O)[C@@H](O)C3)c(F)cc2c1=O)C(F)(F)F (single isomer, unassigned) [Example 138]")
7.6
>>> reported("CC(COC(F)(F)F)NC(=O)c1cn(-c2ccc(F)cc2F)c2ncc(Cl)cc2c1=O (racemic)")
2610
>>> reported("O=C(NC(C(F)(F)F)C(F)(F)F)c1cn(-c2c(F)cc(F)cc2F)c2nc(N3CC(CO)(CO)C3)c(F)cc2c1=O")
9.7
>>> reported("CC[C@H](NC(=O)c1cn(-c2c(F)cc(F)cc2F)c2nc(N3CC[C@H](O)C3)c(F)cc2c1=O)C(F)(F)F")
6.65
>>> reported("O=C(NC12CC(C1)C2)c1cn(-c2c(F)cc(F)cc2F)c2nc(N3C[C@@H](O)[C@H](O)C3)c(F)cc2c1=O")
20

[I] O=C(N[C@@H](C1CC1)C(F)(F)F)c1cn(-c2c(F)cc(F)cc2F)c2nc(N3CCCC[C@H]3CO)c(F)cc2c1=O
[II] O=C(NC(C1CC1)(C1CC1)C(F)(F)F)c1cn(-c2c(F)cc(F)cc2F)c2nc(N3C[C@@H](O)[C@H](O)C3)c(F)cc2c1=O
Enquiry: Of the two listed items, which has the higher EC50? First: I Second: II When you have decided, please share the label of that item.
Return: I

[1] C[C@@H](NC(=O)c1cn(-c2c(F)cc(F)cc2Cl)c2nc(N3C[C@@H](O)[C@H](O)C3)c(F)cc2c1=O)C1CC1
[2] C[C@H](NC(=O)c1cn(-c2c(F)cc(F)cc2Cl)c2nc(N3C[C@@H](O)[C@H](O)C3)c(F)cc2c1=O)C(F)(F)F (single isomer, unassigned) [Example 225]
[3] CC(NC(=O)c1cn(-c2c(F)cc(F)cc2F)c2nc(N3CC[C@H](O)C3)c(Br)cc2c1=O)C(F)(F)C(F)(F)F (single isomer, unassigned)
[4] O=C(NC(C(F)(F)F)C(F)(F)F)c1cn(-c2c(F)cc(F)cc2F)c2nc(N3CCC(O)(CO)CC3)c(F)cc2c1=O
Enquiry: Sort these compounds on EC50 so the largest reading comes first. # the answer lists labels in the order requested
Return: 2, 4, 1, 3

[1] CC(C)(NC(=O)c1cn(-c2c(F)cc(F)cc2Cl)c2nc(N3C[C@@H](O)[C@H](O)C3)c(F)cc2c1=O)C(F)(F)F (single isomer, unassigned) [Example 50]
[2] CC(C)(C)NC(=O)c1cn(-c2c(F)cc(F)cc2F)c2nc(N3C[C@@H](O)[C@H](O)C3)c(F)cc2c1=O
[3] CC(NC(=O)c1cn(-c2c(F)cc(F)cc2F)c2nc(N3CCOCC3)c(F)cc2c1=O)C(F)(F)C(F)(F)F (racemic)
Enquiry: Sort these compounds on EC50 so the largest reading comes first. # the answer lists labels in the order requested
Return: 2, 3, 1
(2: 18.5 nM, 3: 12 nM, 1: 2.5 nM)

[a] CN(CCO)c1nc2c(cc1F)c(=O)c(C(=O)N[C@@H](C1CC1)C(F)(F)F)cn2-c1c(F)cc(F)cc1F
[b] CN(C)c1nc2c(cc1F)c(=O)c(C(=O)NC(C(F)(F)F)C(F)(F)F)cn2-c1c(F)cc(F)cc1Cl
Enquiry: Smaller EC50 value, a vs b ? When you have decided, please share the label of that item.
Return: b
(b: 8.5 nM, a: 25 nM)

[1] O=C(N[C@@H](C1CC1)C(F)(F)F)c1cn(-c2ncc(F)cc2F)c2nc(N3CC[C@H](O)C3)c(F)cc2c1=O
[2] CCC(NC(=O)c1cn(-c2c(F)cc(F)cc2F)c2nc(N3CC(CO)(CO)C3)c(F)cc2c1=O)C(F)(F)C(F)(F)F (racemic) [Example 171]
Enquiry: Of the two listed items, which has the higher EC50? First: 1 Second: 2 When you have decided, please share the label of that item.
Return: 1

[A] O=C(N[C@@H](C1CC1)C(F)(F)F)c1cn(-c2c(F)cc(F)cc2F)c2nc(N3CC4(COC4)C3)c(F)cc2c1=O
[B] CC(NC(=O)c1cn(-c2ncc(F)cc2F)c2nc(N3CC[C@H](O)C3)c(F)cc2c1=O)C(F)(F)C(F)(F)F (single isomer, unassigned) [Example 128]
[C] O=C(NC(c1ccccc1Cl)C(F)(F)F)c1cn(-c2c(F)cc(F)cc2F)c2nc(N3C[C@@H](O)[C@H](O)C3)c(F)cc2c1=O (mixture of isomers)
Enquiry: Form: Sort by [EC50] Order [ ascending ] # the answer lists labels in the order requested
Return: C, B, A
(C: 4.6 nM, B: 9.8 nM, A: 44 nM)

[P] CC(C)[C@H](C)NC(=O)c1cn(-c2c(F)cc(F)cc2F)c2nc(N3C[C@@H](O)[C@@H](O)C3)c(F)cc2c1=O
[Q] CCC(COC(F)(F)F)NC(=O)c1cn(-c2c(F)cc(F)cc2F)c2nc(N3CC[C@H](O)C3)c(F)cc2c1=O (mixture of isomers) [Example 109]
[R] O=C(N[C@@H](C1CC1)C(F)(F)F)c1cn(-c2c(F)cc(F)cc2F)c2nc(N3C[C@@H](O)[C@@H](O)C3)c(F)cc2c1=O
[S] O=C(NC(C(F)(F)F)C(F)(F)F)c1cn(-c2c(F)cc(F)cc2F)c2nc(N3CCC(CO)(CO)CC3)c(F)cc2c1=O
Enquiry: Sort these compounds on EC50 so the largest reading comes first. # the answer lists labels in the order requested
Return: S, P, R, Q
